# TARGET_UNDER_TEST: ICE (IL-1β protease) (Homo sapiens)
# Sequence (P29466 120-297 limits assumed): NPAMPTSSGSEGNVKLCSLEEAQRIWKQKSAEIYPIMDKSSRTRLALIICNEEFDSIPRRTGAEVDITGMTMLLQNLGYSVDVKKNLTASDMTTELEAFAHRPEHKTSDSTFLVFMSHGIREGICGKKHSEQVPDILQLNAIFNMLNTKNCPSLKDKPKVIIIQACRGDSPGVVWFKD
# Sequence (P29466 317-404 limits assumed): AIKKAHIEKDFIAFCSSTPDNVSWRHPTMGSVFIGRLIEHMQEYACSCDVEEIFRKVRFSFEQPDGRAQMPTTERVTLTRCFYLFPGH
# TEST_DETAILS: enzyme assay, second order rates of inactivation of ICE
# Assay type: biochemical
# CONDITIONS_USED: in vitro; read-out: kobs/[I] (IL-1β protease inhibition, second order rate of inactivation)
VALUE_TYPE: kinact/KI

COMPOUND	RESULT
O=C(O)CSc1ccc(C(=O)N[C@H]2CCC(=O)N3CCC[C@@H](C(=O)N[C@@H](CC(=O)O)C(=O)COc4cc(C(F)(F)F)nn4-c4ccc(Cl)cc4)N3C2=O)cc1 [Example 8]	> 10000 M⁻¹ s⁻¹
O=C(O)C[C@H](NC(=O)[C@@H]1CCCN2C(=O)CC[C@H](NC(=O)c3ccccc3)C(=O)N12)C(=O)COc1cc(C(F)(F)F)nn1-c1ccc(Cl)cc1 [Example 7]	> 10000 M⁻¹ s⁻¹
CN(C)Cc1ccc(C(=O)N[C@H]2CCC(=O)N3CCC[C@@H](C(=O)N[C@@H](CC(=O)O)C(=O)COC(=O)c4c(Cl)cccc4Cl)N3C2=O)cc1 [Example 11]	> 10000 M⁻¹ s⁻¹
CCOC(=O)n1cnc2cc(C(=O)N[C@H]3CCC(=O)N4CCC[C@@H](C(=O)N[C@@H](CC(=O)O)C(=O)COC(=O)c5c(Cl)cccc5Cl)N4C3=O)ccc21 [Example 19]	> 10000 M⁻¹ s⁻¹
O=C(O)CCc1ccc(C(=O)N[C@H]2CCC(=O)N3CCC[C@@H](C(=O)N[C@@H](CC(=O)O)C(=O)COc4cc(C(F)(F)F)nn4-c4ccc(Cl)cc4)N3C2=O)cc1 [Example 12]	> 10000 M⁻¹ s⁻¹
O=C(O)CCCc1ccc(C(=O)N[C@H]2CCC(=O)N3CCC[C@@H](C(=O)N[C@@H](CC(=O)O)C(=O)COc4cc(C(F)(F)F)nn4-c4ccc(Cl)cc4)N3C2=O)cc1 [Example 20]	> 10000 M⁻¹ s⁻¹
O=C(O)CCSc1ccc(C(=O)N[C@H]2CCC(=O)N3CCC[C@@H](C(=O)N[C@@H](CC(=O)O)C(=O)COc4cc(C(F)(F)F)nn4-c4ccc(Cl)cc4)N3C2=O)cc1 [Example 9]	> 10000 M⁻¹ s⁻¹
CCOC(=O)n1nnc2cc(C(=O)N[C@H]3CCC(=O)N4CCC[C@@H](C(=O)N[C@@H](CC(=O)O)C(=O)COC(=O)c5c(Cl)cccc5Cl)N4C3=O)ccc21 [Example 18]	> 10000 M⁻¹ s⁻¹
O=C(O)C[C@H](NC(=O)[C@@H]1CCCN2C(=O)CC[C@H](NC(=O)OCc3ccccc3)C(=O)N12)C(=O)COC(=O)c1c(Cl)cccc1Cl [Example 3]	> 10000 M⁻¹ s⁻¹
CC(C)COC(=O)N[C@H]1CCC(=O)N2CCC[C@@H](C(=O)N[C@@H](CC(=O)O)C(=O)COc3cc(C(F)(F)F)nn3-c3ccc(Cl)cc3)N2C1=O [Example 10]	> 10000 M⁻¹ s⁻¹
O=C(O)C[C@H](NC(=O)[C@@H]1CCCN2CCC[C@H](NC(=O)OCc3ccccc3)C(=O)N12)C(=O)COC(=O)c1c(Cl)cccc1Cl [Example 23]	> 10000 M⁻¹ s⁻¹
